- target or test system: T1, human TREM2 expressed on cells (human, UniProt Q9NZC2 19-230)
- T1 sequence: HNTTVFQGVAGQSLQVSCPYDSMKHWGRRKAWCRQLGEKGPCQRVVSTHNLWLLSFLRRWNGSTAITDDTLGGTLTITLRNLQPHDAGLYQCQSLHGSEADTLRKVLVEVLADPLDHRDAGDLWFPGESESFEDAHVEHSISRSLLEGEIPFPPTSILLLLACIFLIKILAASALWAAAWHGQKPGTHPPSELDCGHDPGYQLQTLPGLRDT
- measurement description: cell-based or functional assay
quantity kind: Mac viability (AUC)
Answer format: numeric, AUC implied, no suffix.

// known answers, use as guide
# binder, reading unit, Mac viability (AUC)
data = [
    ("AL2p-44 (antibody, IgG1, V domains shown, Fab and IgG formats under one id) VH: QVQLVQSGAEVKKPGSSVKVSCKASGYAFSSHWMNWVRQAPGQGLEWMGRIYPGGGDTNYARKFRGRVTITADESTSTAYMELSSLRSEDTAVYYCARLLRNQPGASYAMDYWGQGTLVTVSS VL: GVVMTQTPLSLSVTPGQPASISCRTSRSLVHSNRYTYLHWYLQKPGQSPQLLIYKVSNRRSGVPDRFSGSGSGTDFTLKISRVEAEDVGVYYCSQSTRVPYTFGQGTKLEIK", "AUC", 74700),
    ("AL2p-47 (antibody, V domains shown, Fab and IgG formats under one id (explicit huIgG1 is m97); also called AL2-47) VH: QVQLVQSGAEVKKPGSSVKVSCKASGYAFSSDWMNWVRQAPGQGLEWMGRIYPGEGDTNYARKFHGRVTITADESTSTAYMELSSLRSEDTAVYYCARLLRNKPGESYAMDYWGQGTLVTVSS VL: DVVMTQTPLSLSVTPGQPASISCRTSQSLVHSNAYTYLHWYLQKPGQSPQLLIYKVSNRVSGVPDRFSGSGSGTDFTLKISRVEAEDVGVYYCSQSTRVPYTFGQGTKLEIK", "AUC", 22100),
    ("AL2p-53 (antibody, V domains shown, Fab and IgG formats under one id) VH: EVQLVQSGAEVKKPGSSVKVSCKASGYAFSSHWMNWVRQAPGQGLEWMGRIYPGEGDTNYAQKFHGRVTITADESTSTAYMELSSLRSEDTAVYYCARLLRNQPGESYAMDYWGQGTLVTVSS VL: DVVMTQTPLSLSVTPGQPASISCRTSQSLVHSNQYTYLHWYLQKPGQSPQLLIYKVSNRVSGVPDRFSGSGSGTDFTLKISRVEAEDVGVYYCSQSTRVPYTFGQGTKLEIK", "AUC", -10200),
]

Lookup: Tell me the measured Mac viability (AUC) of AL2p-54 (antibody, V domains shown, Fab and IgG formats under one id) VH: QVQLVQSGAEVKKPGSSVKVSCKASGYAFSSHWMNWVRQAPGQGLEWMGRIYPGEGDTNYAQKFHGRVTITADESTSTAYMELSSLRSEDTAVYYCARLLRNKPGESYAMDYWGQGTLVTVSS VL: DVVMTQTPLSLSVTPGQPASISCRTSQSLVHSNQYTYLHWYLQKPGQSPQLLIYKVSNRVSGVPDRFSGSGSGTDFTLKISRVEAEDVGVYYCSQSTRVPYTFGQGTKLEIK , please.
Found: -7640

Lookup: Tell me the measured Mac viability (AUC) of AL2p-50 (antibody, V domains shown, Fab and IgG formats under one id) VH: QVQLVQSGAEVKKPGSSVKVSCKASGYAFSSHWMNWVRQAPGQGLEWMGRIYPGEGDTNYAQKFHGRVTITADESTSTAYMELSSLRSEDTAVYYCARLLRNQPGESYAMDYWGQGTLVTVSS VL: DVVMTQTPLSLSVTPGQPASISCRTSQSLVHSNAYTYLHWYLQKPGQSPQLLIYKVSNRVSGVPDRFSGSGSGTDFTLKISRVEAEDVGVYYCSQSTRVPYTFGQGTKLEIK , please.
Found: -10400

These measurements were taken from patent US20200317776A1.
